Just for reference, paper PMC10740061 is where these values come from.

test system: Caco-2 monolayer; assay: Caco-2 monolayer transmembrane transport, apical to basolateral; assay type: in vitro ADME, human; conditions: WD vs no substrate
readout-name: Increase in PappAtoB

Consider the worked cases shown below.
{"compound": "O=C1c2c(O)cc(O)cc2OC(c2ccc(O)c(O)c2)C1O (stereo not drawn)", "Increase in PappAtoB": "−0.29"}
{"compound": "O=c1cc(-c2ccc(O)cc2)oc2cc(O)cc(O)c12", "Increase in PappAtoB": 1.54}
{"compound": "COc1cc(-c2oc3cc(O)cc(O)c3c(=O)c2O)ccc1O", "Increase in PappAtoB": 0.23}

[A] COc1ccc(-c2coc3cc(O)ccc3c2=O)cc1
[B] C[C@@H]1O[C@@H](O[C@H]2[C@H](Oc3cc(O)c4c(c3)O[C@H](c3ccc(O)cc3)CC4=O)O[C@H](CO)[C@@H](O)[C@@H]2O)[C@H](O)[C@H](O)[C@H]1O
query: Kindly identify which of A and B has the larger recorded Increase in PappAtoB value. Mark your answer with the label of the selected entry.
result: B
(B: 0.77, A: −0.05)

[1] COc1cc(-c2oc3cc(O)cc(O)c3c(=O)c2O[C@@H]2O[C@H](CO[C@@H]3O[C@@H](C)[C@H](O)[C@@H](O)[C@H]3O)[C@@H](O)[C@H](O)[C@H]2O)ccc1O [Isorhamnetin-3-O-rutinoside]
[2] C[C@@H]1O[C@@H](Oc2c(-c3ccc(O)c(O)c3)oc3cc(O)cc(O)c3c2=O)[C@H](O)[C@H](O)[C@H]1O
[3] O=C1c2c(O)cc(O)cc2O[C@H](c2cc(O)c(O)c(O)c2)[C@H]1O [Dihydromyricetin]
[4] O=c1c(O)c(-c2ccc(O)cc2)oc2cc(O[C@@H]3O[C@H](CO)[C@@H](O)[C@H](O)[C@H]3O)cc(O)c12 [Kaempferol-7-O-β-glucoside]
query: Could you please sort these 4 entries by Increase in PappAtoB from high to low? Would you mind listing the labels in the order asked for?
result: 4, 2, 1, 3

[1] O=C1C[C@@H](c2ccc(O)cc2)Oc2cc(O)cc(O)c21
[2] O=c1c(O)c(-c2ccc(O)c(O)c2)oc2cc(O)cc(O)c12
[3] COc1ccc([C@@H]2CC(=O)c3c(O)cc(O)cc3O2)cc1O
query: Could you please sort these 3 entries by Increase in PappAtoB from high to low? Would you mind listing the labels in the order asked for?
result: 3, 2, 1

[a] O=c1c(O)c(-c2ccccc2)oc2cc(O)cc(O)c12
[b] Oc1cc(O)c2c(c1)O[C@H](c1ccc(O)c(O)c1)[C@@H](O)C2 [(+)-Catechin]
[c] OC[C@H]1O[C@@H](Oc2cc3c(O)cc(O)cc3[o+]c2-c2ccc(O)c(O)c2)[C@H](O)[C@@H](O)[C@@H]1O [Cyanidin-3-O-glucoside]
[d] O=c1cc(-c2ccc(O)cc2)oc2c([C@@H]3O[C@H](CO)[C@@H](O)[C@H](O)[C@H]3O)c(O)cc(O)c12
[e] O=c1cc(-c2ccccc2)oc2cc(O)c(O)c(O)c12
query: Could you please sort these 5 entries by Increase in PappAtoB from high to low? Would you mind listing the labels in the order asked for?
result: a, e, c, b, d
(a: 0.75, e: 0.31, c: 0.00, b: −0.04, d: −0.46)

[a] O=c1c(-c2ccc(O)cc2)coc2cc(O)cc(O)c12
[b] O=c1c(O)c(-c2cc(O)c(O)c(O)c2)oc2cc(O)cc(O)c12
query: Kindly identify which of a and b has the larger recorded Increase in PappAtoB value. Mark your answer with the label of the selected entry.
result: b

[I] O=c1cc(-c2ccc(O)cc2)oc2cc(O[C@@H]3O[C@H](CO)[C@@H](O)[C@H](O)[C@H]3O)cc(O)c12 [Apigenin-7-O-glucoside]
[II] Oc1cc(O)c2c(c1)O[C@H](c1ccc(O)c(O)c1)[C@H](O)C2 [(-)-Epicatechin]
query: Of I and II , whose reported Increase in PappAtoB is numerically smaller? Mark your answer with the label of the selected entry.
result: II
(II: 0.18, I: 0.95)
